Tested on: 13F2 (fetal-II hepatoblastoma organoid with high liver markers)
Test: area under the viability dose-response curve (AUC) (AUC (arbitrary units, max 500 = no viability loss)); higher = less sensitive (higher viability)
Conditions: exposure time: 120 h; concentration range: 0.1 nM - 10 µM, 6 doses
measure-name: area under the viability dose-response curve

molecule="CC[C@H](Nc1nc(NCc2cnc(C)cc2C)c2ncn(C(C)C)c2n1)[C@@H](C)O [CYC065]" tested_on=13F2 endpoint_result=328
molecule="C=CCn1c(=O)c2cnc(Nc3ccc(N4CCN(C)CC4)cc3)nc2n1-c1cccc(C(C)(C)O)n1 [Adavosertib]" tested_on=13F2 endpoint_result=354
molecule="CC(C)(C)c1nc(-c2cccc(NS(=O)(=O)c3c(F)cccc3F)c2F)c(-c2ccnc(N)n2)s1 [Dabrafenib]" tested_on=13F2 endpoint_result=411
molecule="CNC(=O)c1cc(Oc2ccc(NC(=O)Nc3ccc(Cl)c(C(F)(F)F)c3)cc2)ccn1 [Sorafenib]" tested_on=13F2 endpoint_result=440
molecule="CN1CCN(c2ccc(C(=O)Nc3n[nH]c4ccc(Cc5cc(F)cc(F)c5)cc34)c(NC3CCOCC3)c2)CC1 [Entrectinib]" tested_on=13F2 endpoint_result=418
molecule=CCn1c(-c2nonc2N)nc2cnc(Oc3cccc(NC(=O)c4ccc(OCCN5CCOCC5)cc4)c3)cc21 tested_on=13F2 endpoint_result=392
molecule="O=C(/C=C\\n1cnc(-c2cc(C(F)(F)F)cc(C(F)(F)F)c2)n1)NNc1cnccn1 [Selinexor]" tested_on=13F2 endpoint_result=319
molecule="Cc1c(C(=O)Nc2ccc(N3C[C@@H](C)O[C@@H](C)C3)nc2)cccc1-c1ccc(OC(F)(F)F)cc1 [Sonidegib]" tested_on=13F2 endpoint_result=470
molecule="C[C@]1(O)C[C@@H](c2nc(-c3ccc4ccc(-c5ccccc5)nc4c3)c3c(N)nccn32)C1 [Linsitinib]" tested_on=13F2 endpoint_result=410
molecule="Cc1c2oc3c(C)ccc(C(=O)N[C@@H]4C(=O)N[C@H](C(C)C)C(=O)N5CCC[C@H]5C(=O)N(C)CC(=O)N(C)[C@@H](C(C)C)C(=O)O[C@@H]4C)c3nc-2c(C(=O)N[C@@H]2C(=O)N[C@H](C(C)C)C(=O)N3CCC[C@H]3C(=O)N(C)CC(=O)N(C)[C@@H](C(C)C)C(=O)O[C@@H]2C)c(N)c1=O [Actinomycin D]" tested_on=13F2 endpoint_result=114
molecule="CNC(=O)c1cccc(-c2ccc3c(N4CCOC[C@@H]4C)nc(N4CCOC[C@@H]4C)nc3n2)c1 [Vistusertib]" tested_on=13F2 endpoint_result=342
molecule="Nc1nc(=S)c2[nH]cnc2[nH]1 [6-Thioguanine]" tested_on=13F2 endpoint_result=381
molecule="Cc1sc2c(c1C)C(c1ccc(Cl)cc1)=N[C@@H](CC(N)=O)c1nnc(C)n1-2 [CPI-203]" tested_on=13F2 endpoint_result=336
molecule="Cn1cnc2c(F)c(Nc3ccc(Br)cc3Cl)c(C(=O)NOCCO)cc21 [Selumetinib]" tested_on=13F2 endpoint_result=412
molecule="Cn1nnc2c(C(N)=O)ncn2c1=O [Temozolomide]" tested_on=13F2 endpoint_result=487

====

Tested on: 13F2
Assay: area under the viability dose-response curve (AUC) (AUC (arbitrary units, max 500 = no viability loss)); higher = less sensitive (higher viability)
Conditions: exposure time: 120 h; concentration range: 0.1 nM - 10 µM, 6 doses
measure-name: area under the viability dose-response curve

molecule=C[C@@H]1COC(Nc2ccc3ncnc(Nc4ccc(OCc5nccs5)c(Cl)c4)c3c2)=N1 inequality_operator== endpoint_result=372
molecule="O=P1(N(CCCl)CCCl)NC(OO)CCO1 (stereo not given) [4-Hydroperoxy cyclophosphamide (Cyclophosphamide)]" inequality_operator=> endpoint_result=500
molecule=O=C1c2c(O)ccc(O)c2C(=O)c2c(NCCNCCO)ccc(NCCNCCO)c21 inequality_operator== endpoint_result=222
molecule=Nc1ccn([C@@H]2O[C@H](CO)[C@@H](O)[C@@H]2O)c(=O)n1 inequality_operator== endpoint_result=377
molecule=CO[C@@H](C)Cn1c(=O)n(C)c2cnc3ccc(-c4cncc(C(C)(C)O)c4)cc3c21 inequality_operator== endpoint_result=334
molecule=C[C@@H](Oc1cc(-n2cnc3ccc(CN4CCN(C)CC4)cc32)sc1C(N)=O)c1ccccc1C(F)(F)F inequality_operator== endpoint_result=268
molecule=CC[C@@H]1C(=O)N(C)c2cnc(Nc3ccc(C(=O)N[C@H]4CC[C@H](N5CCN(CC6CC6)CC5)CC4)cc3OC)nc2N1C(C)C inequality_operator== endpoint_result=278
molecule="COc1cc([C@@H]2c3cc4c(cc3[C@@H](O[C@@H]3O[C@@H]5CO[C@@H](C)O[C@H]5[C@H](O)[C@H]3O)[C@H]3COC(=O)[C@H]23)OCO4)cc(OC)c1O [Etoposide]" inequality_operator== endpoint_result=359
molecule=CCC(CC)(NC(=O)C(C)C)C(=O)N[C@@H](CCCN=C(N)N)C(=O)NC1(C(=O)NC(c2ccc(F)cc2)c2ccc(F)cc2)CCCC1 inequality_operator== endpoint_result=482
molecule=NS(=O)(=O)OC[C@@H]1C[C@@H](n2ccc3c(N[C@H]4CCc5ccccc54)ncnc32)C[C@@H]1O inequality_operator== endpoint_result=329
molecule=C[C@@H]1COCCN1c1cc(C2([S@](C)(=N)=O)CC2)nc(-c2cc[nH]c3nccc2-3)n1 inequality_operator== endpoint_result=450
molecule=CN1CCN(c2ccc3nc(-c4c(N)c5c(F)cccc5[nH]c4=O)[nH]c3c2)CC1 inequality_operator== endpoint_result=400
molecule=COc1cc2c(Oc3ccc4[nH]c(C)cc4c3F)ncnc2cc1OCCCN1CCCC1 inequality_operator== endpoint_result=402
molecule=Nc1cc(C(F)(F)F)c(-c2cc(N3CCOCC3)nc(N3CCOCC3)n2)cn1 inequality_operator== endpoint_result=413
molecule=CS(=O)(=O)c1ccc(C(=O)Nc2ccc(Cl)c(-c3ccccn3)c2)c(Cl)c1 inequality_operator== endpoint_result=490

The measured values listed here are drawn from the supplement of paper PMC11579375.
